Data provenance: PubChem BioAssay

# test_description: HUVEC growth inhibition – cell-based, human, primary screen (AID 575);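 note: 100% = median of untreated cell wells with 0.1% DMSO on each plate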
# reported_conditions: HUVEC proliferation, CellTiter-Glo luminescence, 72 h; at 10 µM; stronger effect = lower value
Exercise: state measured viability for each of the molecules provided.
Field: numeric (%). Do not append units.

Item under review: `CC1(C)CC(=O)C(C#N)=C(NCCCO)C1` . Reported viability? 91.5

What viability value was documented for this molecule, `COC(=O)c1ccc(COc2ncnc3c(Cl)cc(Cl)cc23)o1` ? 95.4

Look up viability for this molecule: O=C(NCc1ccco1)C1CC(=O)N(c2ccc(F)cc2)C1 (stereo unspecified) 108

Name the recorded viability for COc1ccccc1CC1(C)NC(=O)N(CC(=O)Nc2cc(C)on2)C1=O (stereo unspecified) . 106

Dear colleague, I am looking for the recorded viability of the following molecule: `CC(C)(C)NC(=O)Nc1ccccc1C(N)=O` 103

Can you look up the measured viability of `CCOc1ccc(S(=O)(=O)N2CCN(C(=O)c3cccn3C)CC2)cc1` for me? 101

I am curious: what viability value has been reported for `Cc1ccc(S(=O)(=O)N2CCOCC(=O)NCCOCCNC(=O)COCC2)cc1` ? 95.4

Could you tell me which viability is on file for COc1cccc(N2C(=O)C(O)=C(C(C)=O)C2c2ccc(OC)c(OC)c2)c1 (stereo unspecified) ? 109

Item `CSc1nc(NC(C)(C)C)nc(Oc2ccc(=O)[nH]n2)n1` has what recorded viability? 107

I would be grateful if you could share the reported viability for `Cc1ccnc(SCCn2c(N3CCCCC3)nc3c2c(=O)n(C)c(=O)n3C)n1` . 93.9

# query: viability of entry `O=C(OCC#CCSc1nnc(-c2ccncc2)o1)c1cccs1` 88.2

Given `CCOC(=O)c1cnc(-n2nc(C)cc2C)nc1Nc1cccc(C(C)=O)c1` , state its recorded viability. 95.7

viability lookup needed for `COC(=O)c1ccc(-c2sc3nc(N4CCOCC4)c4c(c3c2N)CCCC4)o1` , thanks. 74.4

Look up viability: `CCOCCCNC(=O)CS(=O)(=O)Cc1nc(-c2cccc(OC)c2)oc1C` 88.4

viability lookup needed for `Cn1nnnc1SCC(=O)NCc1ccco1` , thanks. 91.8

Please report the recorded viability for Cc1ccc(C(c2sc3nc(C)nn3c2O)N2CC(C)OC(C)C2)cc1 (stereo unspecified) . 104

Fill blank: measured viability of the molecule `CCCCn1c(SCC(=O)c2ccc3c(c2)OCCO3)nnc1-c1ccco1` is ____. 81.8

For the molecule `C=C(C)c1cccc(C(C)(C)NC(=O)Nc2ncccn2)c1` , what viability is on record? 81

So what's the measured viability for this one? `CCOC(=O)CC1(CC(=O)OCC)NC(=O)c2c(C)sc(C(=O)OCC)c2N1` 71.4

Look at this molecule and give its reported viability. `Cc1cccn2c(=O)c3cc(C(=O)N4CCCc5ccccc54)n(C)c3nc12` 97.2

Consider the molecule shown here: CCNC(=O)CC1C(=O)N(c2ccccc2)C(=O)N1Cc1ccc(OC)cc1 (stereo unspecified) What is its recorded viability? 91.9

Endpoint output: viability of `O=C(OCN1C(=O)c2ccccc2C1=O)c1ccc2c(=O)n3c(nc2c1)CCC3` . Value? 112

Looking for the measured viability of `O=C(OCC#CCSc1nc2ccccc2s1)c1ccco1` , can you help? 74.7

What measured viability goes with `COc1cc(Cn2c(C(=O)O)cc3sccc32)cc(OC)c1OC` ? 98.4

For the molecule shown here, `Cn1c(=O)cc(SCC(=O)N2CCOCC2)c2ccc(Cl)cc21` , give the reported viability. 76.1

# viability lookup, item `CCC(=O)N(CCCN(C)C)c1nc(-c2cc(OC)ccc2OC)cs1` 78.2

For `O=C(CSc1nnc(-c2ccccc2Cl)n1Cc1ccco1)Nc1ccc2c(c1)OCCO2` , what is its reported viability? 93.9

# query: viability of entry `Cc1cc(S(=O)(=O)NC2CCCCC2)ccc1OCC(=O)NCc1ccccn1` 105

Which viability value is on record for `CCOc1ccc(-c2nc(C#N)c(N3CCCCCC3)o2)cc1` ? 79.5

Need viability of COc1ccccc1C1CC(c2ccc(C)cc2)Nc2ncnn21 (stereo unspecified) , thanks. 108

Entry `CCOCCCNC(=O)CCNS(=O)(=O)c1ccc(C)cc1` has what viability? 89.9

Look at this molecule and give its reported viability. COc1ccc(NC2c3ncccc3C(=O)N2Cc2ccccc2)c(OC)c1 (stereo unspecified) 93.8

Need viability, item O=C(c1ccc(Cl)cc1)N(Cc1cccs1)C1CCS(=O)(=O)C1 (stereo unspecified) 117

Dear colleague, I am looking for the recorded viability of the following molecule: `CCOC(=O)c1cnc(-n2cc(C)cn2)nc1Nc1ccccc1OC` 80.8

Can you look up the measured viability of `COc1cc(-c2c(C#N)c(N)nc3c2CCCC3)cc(OC)c1OC` for me? 74.2

Request the reported viability associated with `CCOC(=O)N1CCN(Cc2cc(=O)oc3ccc4ccccc4c23)CC1` 79.9

Entry `CC1=Nn2c(nnc2-c2ccccn2)SC1` has what viability? 88.7

Give the measured viability of `Cc1cc(NS(=O)(=O)c2ccc(Nc3nc(-c4sc(N)nc4C)cs3)cc2)no1` . 75.5

Entry `CSc1nc(C)cc(Oc2ccc(=O)n(C)n2)n1` has what viability? 112

What value of viability has been reported for the following molecule? `CC1=C(C#N)C(=O)NC(C)(C)C1` 91.8

Name the recorded viability for Cc1c(NC(=O)C(C)OC(=O)C(NC(=O)c2ccco2)C(C)C)c(=O)n(-c2ccccc2)n1C (stereo unspecified) . 90.9

Look up viability for this molecule: `Cc1ccc(Br)cc1S(=O)(=O)N1CCN(c2ccccc2)CC1` 76.2

Which measured viability value corresponds to CCOC(=O)N1CCC2(O)CCCCC2C1c1ccc(F)cc1 (stereo unspecified) ? 91.3

Quick one: viability for `COc1ccc(OCc2cccc(C(=O)O)c2)cc1` ? 75.7

What value of viability has been reported for the following molecule? `O=C(CCN1CCN(c2ccc(F)cc2)CC1)Nc1ccccc1F` 90.4

Can you look up the measured viability of `O=C(CNC(=O)c1ccccc1C(=O)O)c1ccccc1` for me? 100
